Parameter melting point: see the listing below.

## Task GET /values?readout=melting point&item= CN1CCc2sc(NC(=O)COc3cc(C(=O)O)cc4cc(Cl)cc(Cl)c34)nc2C1
## Result 242 to 243 °C

* * *

# target or system: glycine binding pocket of the NMDA receptor (Rattus norvegicus, UniProt P35439)
# Construct: For isolation of the cell membranes, the cortices are homogenized; from tissue; host or cells: rat cerebral cortex membranes (male Sprague-Dawley)
# protocol description: [3H]MDL-105,519 displacement studies (rat cortical membranes)
# particulars: displacement of 2 nM [3H]-MDL-105,519, rat cortical membranes; read-out: NMDA-MDL 105519-r-CTX - IC50
Parameter IC50: see the listing below.
Number in nM, nothing else.

# molecule, unit info, obs value
data = [
    ("O=C(COc1cc(C(=O)O)cc2cc(Cl)cc(Cl)c12)Nc1cccc(CO)c1", "nM", 351),
    ("O=C(COc1cc(C(=O)O)cc2cc(Cl)cc(Cl)c12)Nc1ccc(OCc2nnn[nH]2)cc1", "nM", 1540),
    ("CC(Oc1cc(C(=O)O)cc2cc(Cl)cc(Cl)c12)C(=O)Nc1ccc(CO)cc1 (centres unmarked)", "nM", 690),
    ("CNC(=O)COc1cc(CN)ccc1NC(=O)COc1cc(C(=O)O)cc2cc(Cl)cc(Cl)c12", "nM", 297),
    ("CNCc1ccc(NC(=O)COc2cc(C(=O)O)cc3cc(Cl)cc(Cl)c23)c(OCC(=O)O)c1", "nM", 24),
    ("O=C(O)COc1ccc(NC(=O)COc2cc(C(=O)O)cc3cc(Cl)cc(Cl)c23)c(OCC(=O)O)c1", "nM", 252),
    ("O=C(O)c1cc(OCC(=O)N2CCCc3ccccc32)c2c(Cl)cc(Cl)cc2c1", "nM", 1190),
]

## Task GET /values?readout=IC50&item= O=C(COc1cc(C(=O)O)cc2cc(Cl)cc(Cl)c12)NCc1ccccn1
## Result 430
